B1: tRNA (parent)
chain: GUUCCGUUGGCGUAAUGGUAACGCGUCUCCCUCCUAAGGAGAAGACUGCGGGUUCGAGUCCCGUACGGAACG

Variants of: B1
run description: yeast fitness relative to wild type (ratio to wild type); higher = fitter; tRNA-Arg(CCU), competitive growth, 37 C, YPD
This sample holds only a part of the variants without activity.
metric: yeast fitness

>>> result("C29A C49G C55U")
"≤ 0.5"
>>> result("C4A C24G A37G G50C")
"≤ 0.5"
>>> result("A14C A42C U47C")
"≤ 0.5"
>>> result("C5G G44C C55A")
"≤ 0.5"
>>> result("U26G C29U A65U")
"≤ 0.5"

In: Entry under review: C11A G25C C34G C46A A70G . Reported yeast fitness?
Out: ≤ 0.5
